Measured target: human mAChR M1 (Homo sapiens)
Test details: mAChR M1 cell-based functional assay (calcium mobilization), agonist mode: compound alone, Emax relative to acetylcholine maximum
Experimental context: human mAChR M1
Quick reference for EC50 among some compounds

Input: Recorded EC50 for [2H]C1([2H])c2ncccc2C(=O)N1Cc1c(F)cc(-c2ccc(O[C@@H](C)COC)c3nn(C)cc23)cc1F , please?
Output: ≥ 10 µM

====

Measured target: human mAChR M1 (Homo sapiens)
Sequence (P11229 1-460): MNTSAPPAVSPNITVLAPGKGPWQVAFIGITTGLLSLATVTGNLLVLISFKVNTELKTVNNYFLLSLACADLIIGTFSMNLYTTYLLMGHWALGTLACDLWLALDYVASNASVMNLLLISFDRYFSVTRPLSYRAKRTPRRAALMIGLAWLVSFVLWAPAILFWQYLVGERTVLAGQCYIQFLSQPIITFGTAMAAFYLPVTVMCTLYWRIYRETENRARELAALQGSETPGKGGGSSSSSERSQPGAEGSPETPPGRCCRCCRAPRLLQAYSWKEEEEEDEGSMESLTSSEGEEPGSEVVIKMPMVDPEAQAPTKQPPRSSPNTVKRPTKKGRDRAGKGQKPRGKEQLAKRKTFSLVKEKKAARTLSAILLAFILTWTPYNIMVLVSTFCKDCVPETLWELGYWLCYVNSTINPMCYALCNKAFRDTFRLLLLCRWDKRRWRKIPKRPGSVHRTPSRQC
Test details: mAChR M1 cell-based functional assay (calcium mobilization), PAM mode: increase in the EC20 acetylcholine response
Reported Emax values are given for each entry in this list.
Give your result in % as a bare value.

Example entries begin here.
>  <Compound>
[2H]C1([2H])c2ncccc2C(=O)N1Cc1c(F)cc(-c2cccc3nn(C)cc23)cc1C1CCCC1 [Compound 223]

>  <Measured target>
human mAChR M1 (Homo sapiens)

>  <Emax [%]>
59

$$$$
>  <Compound>
[2H]C1([2H])c2ncccc2C(=O)N1Cc1c(F)cc(-c2cccc3nn(C)cc23)cc1Cl [Compound 166]

>  <Measured target>
human mAChR M1 (Homo sapiens)

>  <Emax [%]>
82

$$$$
>  <Compound>
[2H]C1([2H])c2ncccc2C(=O)N1Cc1c(F)cc(-c2cc(Cl)c3nn(C)cc3c2)cc1F [Compound 89]

>  <Measured target>
human mAChR M1 (Homo sapiens)

>  <Emax [%]>
46

$$$$
>  <Compound>
[2H]C1([2H])c2ncccc2C(=O)N1Cc1c(C)cc(-c2ccc(OC)c3nn(C)cc23)cc1F [Compound 195]

>  <Measured target>
human mAChR M1 (Homo sapiens)

>  <Emax [%]>
79

$$$$
>  <Compound>
[2H]C1([2H])c2ncccc2C(=O)N1Cc1ccc(-c2cncc3nn(C)cc23)cc1F [Compound 120]

>  <Measured target>
human mAChR M1 (Homo sapiens)

>  <Emax [%]>
66

$$$$
>  <Compound>
[2H]C1([2H])c2ncccc2C(=O)N1Cc1c(F)cc(-c2cc(F)c(Cl)c3nn(C([2H])([2H])[2H])cc23)cc1F [Compound 248]

>  <Measured target>
human mAChR M1 (Homo sapiens)

>  <Emax [%]>
34

$$$$
>  <Compound>
[2H]C1([2H])c2ncccc2C(=O)N1Cc1c(F)cc(-c2ccc(OCCOC)c3nn(C)cc23)cc1OCC(C)C [Compound 218]

>  <Measured target>
human mAChR M1 (Homo sapiens)

>  <Emax [%]>
79

$$$$
>  <Compound>
[2H]C1([2H])c2ncccc2C(=O)N1Cc1c(C)cc(-c2ccc(C(F)(F)F)c3nn(C)cc23)cc1F [Compound 200]

>  <Measured target>
human mAChR M1 (Homo sapiens)

>  <Emax [%]>
83

$$$$

Input: GET /values?readout=Emax&item= [2H]C1([2H])c2ncccc2C(=O)N1Cc1ccc(-c2ccc(OC(C)C)c3nn(C)cc23)cc1F [Compound 109]
Output: 73

Input: Query [2H]C1([2H])c2ncccc2C(=O)N1Cc1c(F)cc(-c2ccc(C(F)F)c3nn(C)cc23)cc1F [Compound 123] next
Output: 80

Input: # repeat for [2H]C1([2H])c2ncccc2C(=O)N1Cc1c(F)cc(-c2cc(Cl)cc3nn(C)cc23)cc1F [Compound 75]
Output: 55

Input: Similarly, [2H]C1([2H])c2ncccc2C(=O)N1Cc1ccc(-c2cccc3nn(C([2H])([2H])[2H])cc23)cc1C(C)C [Compound 234] ?
Output: 42

Input: Next record, please: [2H]C1([2H])c2ncccc2C(=O)N1Cc1c(F)cc(-c2ccnc3nn(C)cc23)cc1F [Compound 2]
Output: 57

Input: How about this compound: [2H]C1([2H])c2ncccc2C(=O)N1Cc1c(F)cc(-c2ccc(OC(F)F)c3nn(C)cc23)cc1F [Compound 102]
Output: 77

Input: Now the compound [2H]C1([2H])c2ncccc2C(=O)N1Cc1c(F)cc(-c2ccc(OCCOC3CC3)c3nn(C)cc23)cc1F [Compound 150]
Output: 80
